These measurements were taken from patent US6835720B2.

tested on: human T cells (H9 cell line); test: Cytotoxicity, viable cells counted by the MTT method; assay type: cell-based
quantity-name: CC50

[[record]]
molecule = "CCCCCCCC/C=C\\CCCCCCCCOC1(C(=O)O)CC(OS(=O)(=O)O)C(NC(C)=O)C(C(OS(=O)(=O)O)C(COS(=O)(=O)O)OS(=O)(=O)O)O1 (stereo not drawn)"
endpoint_value = "> 200 µM"

[[record]]
molecule = "CCCCCCCCCCCCCCCCCCCCCCOc1cc(OCCCCCCCCCCCCCCCCCCCCCC)cc(O[C@@]2(C(=O)O)C[C@H](OS(=O)(=O)O)[C@@H](NC(C)=O)[C@H]([C@H](OS(=O)(=O)O)[C@@H](COS(=O)(=O)O)OS(=O)(=O)O)O2)c1"
endpoint_value = "> 20 µM"

[[record]]
molecule = "CCCCCCCCCCCCCCCCCCOCC(COC1(C(=O)O)CC(OS(=O)(=O)O)C(NC(C)=O)C(C(OS(=O)(=O)O)C(COS(=O)(=O)O)OS(=O)(=O)O)O1)OS(=O)(=O)O (stereo not drawn)"
endpoint_value = "> 200 µM"

[[record]]
molecule = "CCCCCCCCCCCCCCCCCCOC[C@H](CO[C@@]1(C(=O)O)C[C@H](OS(=O)(=O)O)[C@@H](NC(C)=O)[C@H]([C@H](OS(=O)(=O)O)[C@@H](COS(=O)(=O)O)OS(=O)(=O)O)O1)OS(=O)(=O)O"
endpoint_value = "200 µM"

[[record]]
molecule = "CCCCCCCCCCCCCCOCC(COC1(C(=O)O)CC(OS(=O)(=O)O)C(NC(C)=O)C(C(OS(=O)(=O)O)C(COS(=O)(=O)O)OS(=O)(=O)O)O1)OCCCCCCCCCCCCCC (stereo not drawn)"
endpoint_value = "> 200 µM"

[[record]]
molecule = "CCCCCCCCCCCCCCCCCCCCCCOCC(CC)(COCCCCCCCCCCCCCCCCCCCCCC)COC1(C(=O)O)CC(OS(=O)(=O)O)C(NC(C)=O)C(C(OS(=O)(=O)O)C(COS(=O)(=O)O)OS(=O)(=O)O)O1 (stereo not drawn)"
endpoint_value = "> 200 µM"

[[record]]
molecule = "CCCCCCCCCCCCCCCCCCCCCCOCC(COC1(C(=O)[O-])CC(OS(=O)(=O)[O-])C(NC(C)=O)C(C(OS(=O)(=O)[O-])C(COS(=O)(=O)[O-])OS(=O)(=O)[O-])O1)OCCCCCCCCCCCCCCCCCCCCCC.[Na+].[Na+].[Na+].[Na+].[Na+] (stereo not drawn)"
endpoint_value = "> 200 µM"

[[record]]
molecule = "CCCCCCCCCCCCCCCCCCOCC(COC1(C(=O)O)CC(OS(=O)(=O)O)C(NC(C)=O)C(C(OS(=O)(=O)O)C(COS(=O)(=O)O)OS(=O)(=O)O)O1)OCCCCCCCCCCCCCCCCCC (stereo not drawn)"
endpoint_value = "> 200 µM"

[[record]]
molecule = "CCCCCCCCCCCCCCCCCCCCOCC(COC1(C(=O)O)CC(OS(=O)(=O)O)C(NC(C)=O)C(C(OS(=O)(=O)O)C(COS(=O)(=O)O)OS(=O)(=O)O)O1)OCCCCCCCCCCCCCCCCCCCC (stereo not drawn)"
endpoint_value = "> 20 µM"

[[record]]
molecule = "CCCCCCCCCCCCCCCCCCO[C@]1(C(=O)O)C[C@H](OS(=O)(=O)O)[C@@H](NC(C)=O)[C@H]([C@H](OS(=O)(=O)O)[C@@H](COS(=O)(=O)O)OS(=O)(=O)O)O1"
endpoint_value = "> 200 µM"

[[record]]
molecule = "CCCCCCCCCCCCCCCCCCCCOCC(C)(COCCCCCCCCCCCCCCCCCCCC)CO[C@]1(C(=O)O)C[C@H](OS(=O)(=O)O)[C@@H](NC(C)=O)[C@H]([C@H](OS(=O)(=O)O)[C@@H](COS(=O)(=O)O)OS(=O)(=O)O)O1"
endpoint_value = "> 200 µM"

[[record]]
molecule = "CCCCCCCCCCCCCCCCCCCCCC(=O)OCC(COC1(C(=O)O)CC(OS(=O)(=O)O)C(NC(C)=O)C(C(OS(=O)(=O)O)C(COS(=O)(=O)O)OS(=O)(=O)O)O1)OC(=O)CCCCCCCCCCCCCCCCCCCCC (stereo not drawn)"
endpoint_value = "> 200 µM"

[[record]]
molecule = "CCCCCCCCCCOCC(COC1(C(=O)O)CC(OS(=O)(=O)O)C(NC(C)=O)C(C(OS(=O)(=O)O)C(COS(=O)(=O)O)OS(=O)(=O)O)O1)OCCCCCCCCCC (stereo not drawn)"
endpoint_value = "> 200 µM"

[[record]]
molecule = "CC(=O)N[C@H]1[C@H]([C@H](OS(=O)(=O)O)[C@@H](COS(=O)(=O)O)OS(=O)(=O)O)O[C@@](O[C@H]2CC[C@@]3(C)C(=CC[C@H]4[C@@H]5CC[C@H]([C@H](C)CCCC(C)C)[C@@]5(C)CC[C@@H]43)C2)(C(=O)O)C[C@@H]1OS(=O)(=O)O"
endpoint_value = "> 200 µM"

[[record]]
molecule = "CCCCCCCCCCCCCCCCCCCCCCOCC(COC1(C(=O)O)CC(OS(=O)(=O)O)C(OS(=O)(=O)O)C(C(OS(=O)(=O)O)C(COS(=O)(=O)O)OS(=O)(=O)O)O1)OCCCCCCCCCCCCCCCCCCCCCC (stereo not drawn)"
endpoint_value = "> 200 µM"

[[record]]
molecule = "CCCCCCCCCCCCCCCCCCCCCCCCOCC(COC1(C(=O)O)CC(OS(=O)(=O)O)C(NC(C)=O)C(C(OS(=O)(=O)O)C(COS(=O)(=O)O)OS(=O)(=O)O)O1)OCCCCCCCCCCCCCCCCCCCCCCCC (stereo not drawn)"
endpoint_value = "> 20 µM"

[[record]]
molecule = "CCCCCCCCCCCCCCCCCCCCCCOCC(C)(COCCCCCCCCCCCCCCCCCCCCCC)COC1(C(=O)[O-])CC(OS(=O)(=O)[O-])C(NC(C)=O)C(C(OS(=O)(=O)[O-])C(COS(=O)(=O)[O-])OS(=O)(=O)[O-])O1.[Na+].[Na+].[Na+].[Na+].[Na+] (stereo not drawn)"
endpoint_value = "> 20 µM"

[[record]]
molecule = "CCCCCCCCCCCCCCCCCCCCCCOC[C@H](CO[C@]1(C(=O)[O-])C[C@H](OS(=O)(=O)[O-])[C@@H](NC(C)=O)[C@H]([C@H](OS(=O)(=O)[O-])[C@@H](COS(=O)(=O)[O-])OS(=O)(=O)[O-])O1)OCCCCCCCCCCCCCCCCCCCCCC.[Na+].[Na+].[Na+].[Na+].[Na+]"
endpoint_value = "> 200 µM"

